System: Human papillomavirus type 1a protein E7 (residues 44-93)
Assay: HPV1a E7 fragment binders on microarrays, primary screen, biochemical, small-molecule microarray, residues 44-93, 635 nm fluorescence (AID 1108);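 note: E7 fragment applied at 1 µg/mL in TBST for 1 h at 4 C; score combines spot fluorescence with its signal to noise ratio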
Conditions: small-molecule microarray binding, fluorescence 635 nm; higher = more signal
MEASUREMENT NAME: composite z-score
Format: numeric value only, no unit, no commentary.

Recorded composite z-score, per entry:
{"columns": ["COMPOUND", "STUDY TARGET", "composite z-score"],
 "data": [
  ["C=CCOC(=O)[C@@H]1[C@H]2C(=O)O[C@H](c3ccccc3)[C@H](c3ccccc3)N2[C@H](c2ccc(OCCOC(=O)[C@H]3C[C@H]4C(=O)N5CCC[C@H]5C(=O)N4[C@H]3c3ccc(O)cc3)cc2)[C@@]12C(=O)Nc1ccccc12", "Human papillomavirus type 1a protein E7 (residues 44-93)", -0.747],
  ["COc1ccc(NN2C(C(O)c3cc(OC)c(OC)c(OC)c3)C=CC3C(=O)N(C4CCCCC4)C(=O)C32)cc1 (centres undefined)", "Human papillomavirus type 1a protein E7 (residues 44-93)", 1.22],
  ["C=CC(=O)O[C@@H](Cc1ccccc1)[C@H]1C2C=CCCC=C2CN1Cc1cccc(Cl)c1 (some centres undefined)", "Human papillomavirus type 1a protein E7 (residues 44-93)", -2.98],
  ["[N-]=[N+]=NCc1ccccc1C[C@@]1(C(=O)N2CCOCC2)N=C(c2ccc(OCCCO)cc2)O[C@@H]1c1ccccc1N=[N+]=[N-]", "Human papillomavirus type 1a protein E7 (residues 44-93)", 0.425],
  ["COCCCNC(=O)[C@@]1(Sc2ccc(C)cc2)CC(=O)N(Cc2cc(C(F)(F)F)cc(C(F)(F)F)c2)[C@@H]1c1ccc(CO)cc1I", "Human papillomavirus type 1a protein E7 (residues 44-93)", -0.975],
  ["CCCC[C@H]1OB(O)C[C@H]2C1=C(COC)C[C@H]1C(=O)N(Cc3ccccc3)C(=O)[C@H]12", "Human papillomavirus type 1a protein E7 (residues 44-93)", -0.0721],
  ["[N-]=[N+]=NCc1ccccc1C[C@]1(C(N)=O)N=C(c2ccc(OCCCO)cc2)O[C@H]1c1ccccc1CN=[N+]=[N-]", "Human papillomavirus type 1a protein E7 (residues 44-93)", 0.842],
  ["C[C@@H]1CC[C@H]2C(=O)N3[C@@H](CC[C@@H](C)[C@@H]3c3cccc(N4CCOCC4)c3)C(=O)N2[C@H]1c1cccc(Br)c1", "Human papillomavirus type 1a protein E7 (residues 44-93)", 0.396]
]}

Give recorded composite z-score. `COC(=O)c1c(CC[C@@H](CO)NC(=O)N[C@H](Cn2cc(-c3cncn3C)nn2)C(C)C)oc(C(C)=O)c1C(=O)OC`
0.873

Provide one value: measured composite z-score of `C#C[C@H](O[Si](C#Cc1ccccc1)(C(C)C)C(C)C)c1ccccc1`
-0.285

Give recorded composite z-score. `COc1ccc([Si](C)(C)[C@H]2[C@H](CCO)O[C@@]3(C(=O)N(Cc4ccc(N5CCCCC5=O)cc4)c4ccccc43)[C@@H]2C)cc1`
0.247
